Experiment: in vitro
Settings: mouse, liver microsomes
QUANTITY: remaining at 10 min, 3 µM (%)
I only need the number, in %, no unit after it.

The compound identified as `COc1cc(N2CC=C(Oc3ccc(C4CC4)cc3)C2=O)ccc1OCCO` registered its remaining at 10 min, 3 µM at 74

----------
Assay: physchem
QUANTITY: logP
Simply state the number, no unit and no words.

The compound identified as `COc1cc(N2CC=C(Oc3ccc(C4CC4)cc3)C2=O)ccc1OCCO` registered its logP at 3.3

----------
Assay: in vitro
Conditions: human, liver microsomes
QUANTITY: remaining at 10 min, 3 µM (%)
I only need the number, in %, no unit after it.

The compound identified as `COc1cc(N2CC=C(Oc3ccc(C4CC4)cc3)C2=O)ccc1OCCO` registered its remaining at 10 min, 3 µM at 87

Taken from ChEMBL document CHEMBL5608206.
